- Tested on: survivin
- measurement.notes: Western blot of survivin protein in MSN cells treated with cell cycle checkpoint blockers
- Format: cell-based, human
- experimental.parameters: result in words; cell line not given
readout.type: survivin expression / survivin protein abundance after cell cycle blocker

Problem: For the compound CC(=O)O[C@@]12CO[C@@H]1C[C@H](O)[C@@]1(C)C(=O)[C@H](O)C3=C(C)[C@@H](OC(=O)[C@H](O)[C@@H](NC(=O)OC(C)(C)C)c4ccccc4)C[C@@](O)([C@@H](OC(=O)c4ccccc4)[C@H]21)C3(C)C , what survivin expression / survivin protein abundance after cell cycle blocker is on record?
Result: increased

Problem: What value of measured survivin expression / survivin protein abundance after cell cycle blocker is listed for COC(=O)Nc1nc2ccc(C(=O)c3cccs3)cc2[nH]1 ?
Result: increased

Problem: Record request: survivin expression / survivin protein abundance after cell cycle blocker value, item CC[C@]1(O)C[C@@H]2CN(CCc3c([nH]c4ccccc34)[C@@](C(=O)OC)(c3cc4c(cc3OC)N(C)[C@H]3[C@@](O)(C(=O)OC)[C@H](OC(C)=O)[C@]5(CC)C=CCN6CC[C@]43[C@@H]65)C2)C1
Result: increased

---

- System: survivin
- measurement.notes: Western blot of survivin protein in antisense oligonucleotide-treated MSN cells
- Format: cell-based, human
- experimental.parameters: 400 nM, lipofectin, 48 hours (FIG. 3A)
Oligonucleotides are written 5' to 3', each unit as a sugar letter and its base; * is a phosphorothioate linkage, no mark a phosphodiester; rarer units and linkages stand in square brackets, end groups in braces. Plain capitals give the bases only. d = 2'-deoxy (DNA)
Recorded percentage of survivin protein over β-tubulin relative to lipofectin values for a group of substances are listed next.
Provide only the numeric value, understood in %.

Example entries and their recorded answers appear below.
Problem: So what's the measured percentage of survivin protein over β-tubulin relative to lipofectin for this one? d(GCTTCCCAGTCACATCCTGT) (antisense dG*dC*dT*dT*dC*dC*dC*dA*dG*dT*dC*dA*dC*dA*dT*dC*dC*dT*dG*dT) [Oligo 906, 20-mer phosphorothioate survivin antisense oligonucleotide, complementary to survivin mRNA 11897-11916]
Result: 26.9

Problem: Give its percentage of survivin protein over β-tubulin relative to lipofectin value. Item: d(CAGTGGATGAAGGCAGCCTC) (antisense dC*dA*dG*dT*dG*dG*dA*dT*dG*dA*dA*dG*dG*dC*dA*dG*dC*dC*dT*dC) [Oligo 901, 20-mer phosphorothioate survivin antisense oligonucleotide, complementary to survivin mRNA 3180-3199]
Result: 38.3

Next:
Problem: Quick one: percentage of survivin protein over β-tubulin relative to lipofectin of d(GCCAGTTCTTGAATGTAGAG) (antisense dG*dC*dC*dA*dG*dT*dT*dC*dT*dT*dG*dA*dA*dT*dG*dT*dA*dG*dA*dG) [Oligo 900, 20-mer phosphorothioate survivin antisense oligonucleotide, complementary to survivin mRNA 2867-2886] ?
Result: 77.7

---

Below, each entry is listed with its recorded fold change of XIAP protein over β-tubulin relative to lipofectin.
- Test system: XIAP
- experimental.parameters: MSN cells; 400 nM; 48 hours (FIG. 10A)
Oligonucleotides are written 5' to 3', each unit as a sugar letter and its base; * is a phosphorothioate linkage, no mark a phosphodiester; rarer units and linkages stand in square brackets, end groups in braces. Plain capitals give the bases only. d = 2'-deoxy (DNA)
Please respond with the number in fold and leave the unit unwritten.

# annotated cases, reported fold change of XIAP protein over β-tubulin relative to lipofectin shown
Problem: Requested field: fold change of XIAP protein over β-tubulin relative to lipofectin. Item: d(GCCAGTTCTTGAATGTAGAG) (antisense dG*dC*dC*dA*dG*dT*dT*dC*dT*dT*dG*dA*dA*dT*dG*dT*dA*dG*dA*dG) [Oligo 900]
Result: 2.3

Problem: Using the record for d(GAGCCTTCCTCTTCATGTCC) (antisense dG*dA*dG*dC*dC*dT*dT*dC*dC*dT*dC*dT*dT*dC*dA*dT*dG*dT*dC*dC) [Oligo 905] , report its fold change of XIAP protein over β-tubulin relative to lipofectin.
Result: 7.6

Problem: Name the reported fold change of XIAP protein over β-tubulin relative to lipofectin value associated with the substance d(CCCTAGCTCACACTCTCATT) (antisense dC*dC*dC*dT*dA*dG*dC*dT*dC*dA*dC*dA*dC*dT*dC*dT*dC*dA*dT*dT) [Oligo 903]
Result: 5.2

Problem: Fill in: fold change of XIAP protein over β-tubulin relative to lipofectin of d(CAGTGGATGAAGGCAGCCTC) (antisense dC*dA*dG*dT*dG*dG*dA*dT*dG*dA*dA*dG*dG*dC*dA*dG*dC*dC*dT*dC) [Oligo 901] is ___
Result: 3.9

***
Problem: Quick one: fold change of XIAP protein over β-tubulin relative to lipofectin of d(GCTTCCCAGTCACATCCTGT) (antisense dG*dC*dT*dT*dC*dC*dC*dA*dG*dT*dC*dA*dC*dA*dT*dC*dC*dT*dG*dT) [Oligo 906] ?
Result: 8.3

Where do the numbers come from? From patent US20030125287A1.
